- methodNotes: amyloid nucleation score (Sup35N fusion, yeast selection) (log enrichment); library NNK3; higher = more nucleation; inactive = no reads after selection;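 further: zero at mode of non-aggregating sequences after 7 days selection at 30°C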
outcomeMeasure: amyloid nucleation score

residuestring=KWRDIIYCIYSIMIDSCTSR recordedresult=inactive
residuestring=RSVSNVFRLCLDAWGKVRRH recordedresult=inactive
residuestring=LIIGCGIFSLNS recordedresult=1.94
residuestring=NNCVGCPCFSYRS recordedresult=3.04

Give the measured amyloid nucleation score of NCFEYLYPRVTDTELNRFFL .
inactive

Give the measured amyloid nucleation score of FLAYGWWHYKWSGNDTLHSF .
inactive

Give the measured amyloid nucleation score of SVRRQHPFN .
inactive

Give the measured amyloid nucleation score of YLDFDRMFVQCEFCLTDLDL .
0.59

Give the measured amyloid nucleation score of TLSCTKVTP .
inactive

Give the measured amyloid nucleation score of GDCVLDPDLRSWDEW .
inactive

---

- methodNotes: amyloid nucleation score (Sup35N fusion, yeast selection) (log enrichment); library NNK1; higher = more nucleation; inactive = no reads after selection
outcomeMeasure: amyloid nucleation score
Please state the value as a number alone, without comment.

substance=FVLVMLNMQ outcomemeasure="amyloid nucleation score" recordedresult=4.4
substance=FGDWGCRRRNVSA outcomemeasure="amyloid nucleation score" recordedresult=-0.269
substance=KFMVNVIV outcomemeasure="amyloid nucleation score" recordedresult=1.24
substance=NFVICNVMDRISWLCVCNLH outcomemeasure="amyloid nucleation score" recordedresult=4.08
substance=TQCSFAANQF outcomemeasure="amyloid nucleation score" recordedresult=0.768
substance=LLLDTLVCVVKHTNTCFSKW outcomemeasure="amyloid nucleation score" recordedresult=0.503
substance=TGFTSLGGYLKVFNIICWIH outcomemeasure="amyloid nucleation score" recordedresult=3.39
substance=GCFEFVCEVAVGVSLDYSYL outcomemeasure="amyloid nucleation score" recordedresult=-0.085
substance=RVISPSCKWDQCSPMCS outcomemeasure="amyloid nucleation score" recordedresult=-0.499
substance=CNLSNVSLLFRYELLISGSY outcomemeasure="amyloid nucleation score" recordedresult=0.748

Give the measured amyloid nucleation score of YSKWSISTFECMWAKNWRGD .
1.66

Give the measured amyloid nucleation score of RFNWSSDLCSFKTPLSKHVG .
0.258

---

- methodNotes: amyloid nucleation score (Sup35N fusion, yeast selection) (log enrichment); library NNK1; higher = more nucleation; inactive = no reads after selection
outcomeMeasure: amyloid nucleation score
Please state the value as a number alone, without comment.

Recorded amyloid nucleation score, per entry:
residuestring=IQFIDRPDHIARRLVWFRIG recordedresult=0.351
residuestring=RNLEVIYNSI recordedresult=0.229
residuestring=HLAINNADTALGSYKGQVSV recordedresult=2.36
residuestring=ANLACACCCYP recordedresult=-0.146
residuestring=VRWNWSGPNELYLRLFCRLP recordedresult=-0.508

# next sequence below
Give the measured amyloid nucleation score of VIHYSGLSMVAVQ .
-0.379

---

- methodNotes: amyloid nucleation score (Sup35N fusion, yeast selection) (log enrichment); library NNK3; higher = more nucleation; inactive = no reads after selection
outcomeMeasure: amyloid nucleation score

Recorded amyloid nucleation score, per entry:
residuestring=AYSVSRSALRSEANRIGSR outcomemeasure="amyloid nucleation score" recordedresult=inactive
residuestring=NLCDVGRMLNCRRTSFGYMF outcomemeasure="amyloid nucleation score" recordedresult=inactive
residuestring=VNGCIRCCTPVSKYISVDLA outcomemeasure="amyloid nucleation score" recordedresult=inactive
residuestring=SYSTARDSVGLSSWSSLIKW outcomemeasure="amyloid nucleation score" recordedresult=inactive
residuestring=LGGYFLFNIITVGSTGMRKH outcomemeasure="amyloid nucleation score" recordedresult=2.06

Give the measured amyloid nucleation score of VSSKDGLFCCL .
0.209

Give the measured amyloid nucleation score of VISVGLVIKRLYSMWYLAAG .
inactive

Give the measured amyloid nucleation score of NYNCVVDNLSGKCMNEILGY .
1.09

Give the measured amyloid nucleation score of SMLAFDLGGCAQTVTGWW .
inactive

Give the measured amyloid nucleation score of LGPREQDLINFNWVFQYLKH .
inactive

Give the measured amyloid nucleation score of TLIRRVYVRRFYTGIEVGST .
inactive
